- Tested on: U251 CNS
- ASSAY NOTES: NCI tumour cell line growth inhibition, 48 h

MOLECULE | TESTED TARGET | UOM | BOUND OPERATOR | TGI
CCOC(=O)[C@]1(OC(C)=O)C[C@H](OC(C)=O)[C@@H](C(F)COP(=O)(OCc2ccccc2)OCc2ccccc2)O1 (stereo not given in full) | U251 CNS | µM | > | 100
COc1cc(-c2nn(-c3ccc(NC(=O)c4ccc(Cl)c(C(F)(F)F)c4)cc3)cc2-c2ccncc2)ccc1Cl | U251 CNS | µM | = | 56.7
NC(=O)c1sc(-n2cnc3ccccc32)cc1OCc1ccccc1Br | U251 CNS | µM | > | 25
COC(=O)c1cc2c(n1S(=O)(=O)c1ccc(C)cc1)C(=O)C(=O)c1[nH]cc(C(=O)OCc3ccccc3)c1-2 | U251 CNS | µM | = | 0.809
COc1ccccc1C12OC(=O)C1(C)Oc1ccccc1C2=O (stereo not given) | U251 CNS | µM | > | 100

----------
- Test system: M14 melanoma
- ASSAY NOTES: NCI tumour cell line growth inhibition, 48 h

COMPOUND | TGI
Cn1cnc([N+](=O)[O-])c1Sc1nnc(-c2cccnc2)n1C | 35.4 µM
COc1ccc(C(OCC2OC(n3cc(C)c(=O)[nH]c3=O)CC2n2cc(Cn3cc(I)c(=O)[nH]c3=O)nn2)(c2ccccc2)c2ccccc2)cc1 (stereo not given) | > 100 µM
CCOC(=O)[C@]1(OC(C)=O)C[C@H](OC(C)=O)[C@@H](C(F)COP(=O)(OCc2ccccc2)OCc2ccccc2)O1 (stereo not given in full) | > 100 µM
CCc1ccc(CCN2CCCCC2)nc1 | > 100 µM
N.N.N.N.O=[N+]([O-])[O-].[Co+3].[N-]=[N+]=[N-].[N-]=[N+]=[N-] | > 100 µM
CC1C=C(CCCCCCCCCCCC[C@@H](O)[C@@H]2CC[C@@H]([C@@H]3CC[C@@H](C(O)CCCCCCCCCCCCC4=C[C@H](C)OC4=O)O3)O2)C(=O)O1 (stereo not given in full) | > 100 µM
CC(=O)O[C@H]1C(=O)[C@]2(C)[C@@H](OC(=O)OCCC(O)CO)C[C@H]3OC[C@@]3(OC(C)=O)[C@H]2[C@H](OC(=O)c2ccccc2)[C@]2(O)C[C@H](OC(=O)[C@H](O)[C@@H](NC(=O)c3ccccc3)c3ccccc3)C(C)=C1C2(C)C (stereo not given in full) | 7.16 µM
COc1ccc(CNc2nc(NCc3ccc(OC)c(OC)c3)nc(NC3CCCCC3)n2)cc1 | > 100 µM
O=S(=O)(NC1=NCCN1C(=S)SN1CCn2c1nsc2=S)c1ccc(OC(F)(F)F)cc1 | > 100 µM
Brc1ccc(N=c2nc3ccccn3n3nc(-c4ccccc4)cc23)cc1 | 33 µM
CCC1(O)CC2CC(=O)OC2C1O (stereo not given) | > 100 µM
Clc1cc2nsnc2c(Cl)n1 | 29 µM
Cc1cccc(/C=N/NC(=S)Nc2ccccc2)n1 | 8.05 µM
CCC(CO)Nc1nc2ccc(Cl)cc2c2ccccc12 (stereo not given) | 25.6 µM
COC1(OC)CCC2C1C1CCC(OC)(OC)C21 (stereo not given) | > 50 µM
